- Test system: 786-0 renal
- Protocol Summary: NCI-60 one-dose screen, 48 h
- Measurement Parameters: 10 µM
The panel holds about 83,000 compounds, 20% with a hit somewhere; the sample as a whole holds those more often. Calls of active or inactive are those of the source. The calls were made as follows: active = growth percent below 10; inactive = the rest.
Result category, one only: true (1) for active, false (0) for inactive

• Cn1cnc2nc(Cl)nc(Cl)c21 = true (1)
• CC1=CC(=O)c2ccccc2C1=O = false (0)

[in] Each compound tested received a call. Report the one for Nc1ccccc1SC(CC(=O)c1ccccc1)c1c(Cl)cccc1Cl (stereo not drawn) .
[out] false (0)

[in] Now give it for CN(c1ccccc1)c1ncnc2c1ncn2C too.
[out] false (0)

[in] What do you have for CCOC(=O)Nc1cc2c(c(N)n1)N=C(c1ccccc1)CO2 ?
[out] false (0)

[in] And for CSC[C@H](NC(=O)COc1cccc2cnccc12)C(=O)NC(Cc1ccccc1)C(O)C(=O)N1CSC[C@H]1C(=O)NC(C)(C)C (stereo partly drawn) ?
[out] false (0)

[in] Request: C/C(=N\O)C1(O)CCCCC1
[out] false (0)

[in] Record: C#Cc1cccc(NC(=O)c2ccc(Cl)cc2Cl)c1
[out] false (0)

[in] Next up: Cc1cc(/C=C/c2ccc3cc(N(C)C)ccc3[n+]2C)c(C)n1-c1ccccc1
[out] true (1)

[in] And the next one, CC(=O)C1CCCCC1 ?
[out] false (0)

[in] Then N#CCCc1ccc(O)cc1 ?
[out] false (0)

[in] Then this compound: CCNc1nc2c(cnn2C)c(=O)[nH]1
[out] false (0)

[in] Item: CC(=O)OC(C(=O)O)c1ccccc1 (stereo not drawn)
[out] false (0)

[in] And the next one, OCc1ccc(-c2ccc(-c3ccc(CO)s3)o2)s1 ?
[out] false (0)

[in] Further, for CCOC(=O)CCCC(=O)OCC ?
[out] false (0)

[in] And CCOc1ccc(Br)cc1/C=N\N=C\c1cc(Br)ccc1OCC ?
[out] false (0)

[in] Field entry: O=C1C=C(O)C(=O)C=C1O
[out] false (0)

[in] Another: CC(=O)Cc1cc(-c2cc(CC(C)=O)[nH]n2)n[nH]1
[out] false (0)

[in] Consider next the compound CNC(=O)c1ccccc1CC1(O)c2ccccc2Oc2ccccc21 in the same way.
[out] false (0)
